Target: Nicotinamide phosphoribosyltransferase (Mus musculus, UniProt Q99KQ4)
Sequence (Q99KQ4 whole entry): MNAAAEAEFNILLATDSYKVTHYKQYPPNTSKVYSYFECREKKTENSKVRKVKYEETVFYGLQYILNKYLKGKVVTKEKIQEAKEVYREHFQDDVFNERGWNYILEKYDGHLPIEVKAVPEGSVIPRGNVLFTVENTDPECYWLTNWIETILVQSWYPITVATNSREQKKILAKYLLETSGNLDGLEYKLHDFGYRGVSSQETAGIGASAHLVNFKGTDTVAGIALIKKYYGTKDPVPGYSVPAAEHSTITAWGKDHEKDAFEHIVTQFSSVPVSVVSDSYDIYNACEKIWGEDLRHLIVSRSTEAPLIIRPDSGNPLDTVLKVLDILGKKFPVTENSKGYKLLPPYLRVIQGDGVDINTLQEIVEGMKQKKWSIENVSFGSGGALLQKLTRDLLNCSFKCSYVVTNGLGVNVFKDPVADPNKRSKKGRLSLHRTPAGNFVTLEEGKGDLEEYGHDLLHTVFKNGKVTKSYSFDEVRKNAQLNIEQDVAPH
Test: Inhibition of N-terminal His-tagged mouse NAMPT transformed in Escherichia coli Rosetta cells
measured.endpoint: pIC50
Give bare numbers, as −log10 of the molar value.

Lab book: pIC50 of CCN(CC)C(=O)c1noc2cc(NC(=O)NCc3cnco3)ccc12 noted as 5.83

----------
Target: Nicotinamide phosphoribosyltransferase (Homo sapiens, UniProt P43490)
Sequence (P43490 whole entry): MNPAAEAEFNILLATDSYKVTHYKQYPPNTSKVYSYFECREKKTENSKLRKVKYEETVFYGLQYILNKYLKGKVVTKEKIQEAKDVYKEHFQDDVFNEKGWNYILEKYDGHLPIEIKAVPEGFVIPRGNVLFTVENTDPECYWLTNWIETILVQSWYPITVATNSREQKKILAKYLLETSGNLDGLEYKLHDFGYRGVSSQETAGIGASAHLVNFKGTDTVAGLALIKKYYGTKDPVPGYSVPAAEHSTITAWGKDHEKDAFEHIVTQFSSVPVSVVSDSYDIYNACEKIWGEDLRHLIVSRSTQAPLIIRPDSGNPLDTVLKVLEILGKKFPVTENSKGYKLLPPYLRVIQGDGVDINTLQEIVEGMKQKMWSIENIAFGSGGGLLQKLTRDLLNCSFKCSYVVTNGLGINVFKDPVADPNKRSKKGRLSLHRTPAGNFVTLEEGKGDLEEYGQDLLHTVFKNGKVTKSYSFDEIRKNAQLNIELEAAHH
measured.endpoint: IC50 (nM)
Answers are plain numbers, in nM.

Lab book: IC50 of O=C(NCc1ccncc1)Nc1ccc(S(=O)(=O)N2C[C@H]3CC[C@@H](C2)O3)cc1 noted as 279

----------
Assay: Cmax in ICR mouse at 10 mg/kg, iv by LC-MS/MS analysis
Assay type: ADME, organism-based
Details: in vivo
measured.endpoint: Cmax (µM)
Numbers only, in µM.

Lab book: Cmax of O=C(/C=C/c1cccnc1)NCCCCC1CCN(C(=O)c2ccccc2)CC1 [DAPORINAD] noted as 14

Cited source: ChEMBL document CHEMBL5543134
